The values you see were collected from the supplement of paper PMC6555819.

Test system: RARb:RXRa (NR concentration 270 nM, RXRa partner concentration 90 nM)
Assay: PBM binding z-score (relative to random genomic background probes); higher = stronger binding; sequences stand for … in GC…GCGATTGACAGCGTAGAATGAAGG
Task for the reader: assign each of the following sequences its reported PBM binding z-score.
API note: the answer field is a bare number with no unit suffix.

PBM binding z-score in this record for `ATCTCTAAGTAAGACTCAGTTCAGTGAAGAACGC` : 0.15

// PBM binding z-score lookup, sequence = `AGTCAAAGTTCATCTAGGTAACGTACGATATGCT` , result: 5.06

Entry `CCGACTGGGGCAAAGGTAACCATACTCAGTACGA` — recorded PBM binding z-score = 0.906

Entry `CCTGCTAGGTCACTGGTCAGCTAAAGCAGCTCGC` — recorded PBM binding z-score = 3.92

Note to self: PBM binding z-score recorded for `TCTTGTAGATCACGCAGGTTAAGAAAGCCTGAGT` was 0.386

# PBM binding z-score (sequence: `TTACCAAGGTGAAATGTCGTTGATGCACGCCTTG` ) is 1.44

Data point: `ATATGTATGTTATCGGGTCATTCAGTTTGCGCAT` ; PBM binding z-score = 1.98

Query `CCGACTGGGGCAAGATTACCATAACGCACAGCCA` yields PBM binding z-score of 0.315

// PBM binding z-score lookup, sequence = `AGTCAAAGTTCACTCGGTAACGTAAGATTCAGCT` , result: 4.76

Per the records, this sequence ( `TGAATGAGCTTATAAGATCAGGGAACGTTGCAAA` ) has PBM binding z-score equal to -1.12

Entry under test: `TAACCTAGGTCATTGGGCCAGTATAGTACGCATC` . Its PBM binding z-score was 3.88

The sequence listed as `AGTCAAAGTTTAGGACGAGGTAACGTAAAGCACG` has a reported PBM binding z-score of 1.41

* * *

Record form. Attribute: PBM binding z-score. Fill in for each entry.
System: RARg:RXRa (NR concentration 270 nM, RXRa partner concentration 90 nM)
Test: PBM binding z-score (relative to random genomic background probes); higher = stronger binding; sequences stand for … in GC…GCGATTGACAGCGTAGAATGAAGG
// no unit, no text: just the number

Readout PBM binding z-score for `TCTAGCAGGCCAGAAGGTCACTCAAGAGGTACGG` , test system RARg:RXRa (NR concentration 270 nM, RXRa partner concentration 90 nM), was 3.95

With RARg:RXRa (NR concentration 270 nM, RXRa partner concentration 90 nM) as the test system, `TATACAGGGTCAAAGGCCAGAGTCCGAATGTCGA` showed PBM binding z-score of 5.63

# value of PBM binding z-score, RARg:RXRa (NR concentration 270 nM, RXRa partner concentration 90 nM), item `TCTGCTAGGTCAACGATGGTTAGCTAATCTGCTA` = 3.97

The observed PBM binding z-score for `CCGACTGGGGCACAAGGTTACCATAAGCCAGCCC` when tested with RARg:RXRa (NR concentration 270 nM, RXRa partner concentration 90 nM) stands at 1.46

Let me check: `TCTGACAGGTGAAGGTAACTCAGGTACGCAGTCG` , system RARg:RXRa (NR concentration 270 nM, RXRa partner concentration 90 nM), measured PBM binding z-score is 0.644

PBM binding z-score for RARg:RXRa (NR concentration 270 nM, RXRa partner concentration 90 nM) with input `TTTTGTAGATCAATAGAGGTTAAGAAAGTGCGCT` equals 0.945

* * *

Test system: PPARg DBDmut IVT, anti-PPARg (DBD mutation: PPARg1 K132A/R137A, NR concentration 270 nM)
Experiment: PBM binding z-score (relative to random genomic background probes); higher = stronger binding; sequences stand for … in GC…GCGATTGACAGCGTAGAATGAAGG
measuredQuantity: PBM binding z-score
Respond with the number and no other words.

Record `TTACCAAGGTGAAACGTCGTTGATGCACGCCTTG` . Reported PBM binding z-score: 0.358

PBM binding z-score reading for `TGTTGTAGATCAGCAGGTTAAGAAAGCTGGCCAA` : -1.02

Briefly, PBM binding z-score measured for `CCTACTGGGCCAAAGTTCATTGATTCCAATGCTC` : -0.115

Entry `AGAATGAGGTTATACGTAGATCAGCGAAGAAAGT` , PBM binding z-score reported as 1.06

Sample `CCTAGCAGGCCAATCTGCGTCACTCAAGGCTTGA` ; PBM binding z-score observed: -0.968

Given item `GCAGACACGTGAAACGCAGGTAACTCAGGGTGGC` , the value recorded as its PBM binding z-score is -0.343

Input `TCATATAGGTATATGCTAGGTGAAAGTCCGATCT` . Output PBM binding z-score: 1.63

`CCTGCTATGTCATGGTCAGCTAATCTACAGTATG` has a reported PBM binding z-score of 0.546

The sequence `CCTTGCAGGCCAGGGTCACTCAAGCATTTCGCTT` showed PBM binding z-score equal to -1.48

// sample `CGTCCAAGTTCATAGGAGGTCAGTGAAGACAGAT` , its PBM binding z-score was 0.544

Quick note, PBM binding z-score for `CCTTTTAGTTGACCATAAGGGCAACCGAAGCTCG` landed at 0.61

Value of PBM binding z-score reported for the sequence `CGTCCAATGTCAAAGGTCAGTGAAGAGATGACGG` is 0.834

// recorded PBM binding z-score for `CCGACTGGGGCAAAGGTTACCAAACTCAGTACGA` : -0.533

The reported value for `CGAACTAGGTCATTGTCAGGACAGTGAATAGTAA` in terms of PBM binding z-score is 6.24

Lab note: measured PBM binding z-score of `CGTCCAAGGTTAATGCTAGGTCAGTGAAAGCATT` was -0.333

get_value(item= `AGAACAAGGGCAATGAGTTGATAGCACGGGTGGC` , readout=PBM binding z-score) returns -0.527

Briefly, PBM binding z-score measured for `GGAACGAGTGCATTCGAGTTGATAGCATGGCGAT` : -0.767

Recorded result, `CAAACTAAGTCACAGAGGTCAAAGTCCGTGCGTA` , PBM binding z-score: 0.368

Query `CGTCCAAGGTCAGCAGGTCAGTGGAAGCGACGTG` yields PBM binding z-score of -0.183

Recorded PBM binding z-score (sequence `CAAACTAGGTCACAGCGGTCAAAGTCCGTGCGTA` ): 1.7

Recorded result, `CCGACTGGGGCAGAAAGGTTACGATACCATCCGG` , PBM binding z-score: -0.0493

GET /value?item= `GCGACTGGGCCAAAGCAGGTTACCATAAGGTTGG` &field=PBM binding z-score returns -0.738

response.value for `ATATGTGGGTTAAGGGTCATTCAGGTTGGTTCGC` (field: PBM binding z-score) = 2.39

For `CCTTACGGGTCAAGGTTATAACACGGGTGGTACG` the sequence record lists PBM binding z-score as -0.192

The sequence listed as `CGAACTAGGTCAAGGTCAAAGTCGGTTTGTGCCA` has a reported PBM binding z-score of 1.2

Looking up `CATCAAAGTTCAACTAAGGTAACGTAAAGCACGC` , I see its PBM binding z-score listed as 1.35

get_value(item= `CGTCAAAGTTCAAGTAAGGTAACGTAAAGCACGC` , readout=PBM binding z-score) returns 0.765

Just so you know, measured PBM binding z-score for `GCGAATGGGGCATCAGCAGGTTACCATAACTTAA` came out at -0.65

The value of PBM binding z-score measured for the sequence `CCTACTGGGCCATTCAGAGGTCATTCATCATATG` turned out to be 0.03

Lab note: `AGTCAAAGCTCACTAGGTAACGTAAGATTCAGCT` gave PBM binding z-score of -0.313

Consider `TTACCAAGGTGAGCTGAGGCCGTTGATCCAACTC` . Its measured PBM binding z-score is -0.387

Recorded PBM binding z-score (sequence `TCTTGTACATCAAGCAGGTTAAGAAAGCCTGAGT` ): 1.57

Measured PBM binding z-score, `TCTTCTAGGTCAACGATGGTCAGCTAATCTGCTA` : 3.07

The value of PBM binding z-score measured for the sequence `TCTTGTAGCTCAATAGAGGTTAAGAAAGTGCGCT` turned out to be 0.551

The sequence listed as `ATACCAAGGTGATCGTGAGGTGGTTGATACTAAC` shows PBM binding z-score equal to 0.15

Reported PBM binding z-score ( `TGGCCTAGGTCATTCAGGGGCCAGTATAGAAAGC` ) = -0.779

Reported PBM binding z-score of `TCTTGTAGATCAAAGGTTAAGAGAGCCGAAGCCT` : -0.197

Notebook: `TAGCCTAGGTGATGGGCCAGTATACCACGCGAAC` , PBM binding z-score read as -0.847

Quick note, PBM binding z-score for `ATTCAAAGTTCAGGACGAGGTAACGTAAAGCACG` landed at 0.76

According to the records, this sequence `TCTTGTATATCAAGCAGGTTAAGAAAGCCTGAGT` displays PBM binding z-score of 1.48

The value of PBM binding z-score measured for the sequence `TCTTGTAGATCAATAGAGGTTAAGAATGTGCGCT` turned out to be 0.485

Lab book: PBM binding z-score of `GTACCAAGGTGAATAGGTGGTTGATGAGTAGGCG` noted as -0.307

Looking up `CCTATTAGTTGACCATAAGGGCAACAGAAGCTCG` , I found its PBM binding z-score recorded as 0.417

Input `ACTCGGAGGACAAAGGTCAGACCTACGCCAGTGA` . Output PBM binding z-score: -0.307

PBM binding z-score reading for `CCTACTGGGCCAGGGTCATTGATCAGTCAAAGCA` : -0.896

Quick note, PBM binding z-score for `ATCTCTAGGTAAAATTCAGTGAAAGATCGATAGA` landed at 1.25

So, `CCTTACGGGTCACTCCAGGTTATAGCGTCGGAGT` ? Its PBM binding z-score was -0.822

Documented PBM binding z-score of `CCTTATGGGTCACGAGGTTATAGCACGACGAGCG` : 2.59

The recorded PBM binding z-score for `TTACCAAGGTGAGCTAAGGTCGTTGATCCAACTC` is -0.173

The recorded PBM binding z-score for entry `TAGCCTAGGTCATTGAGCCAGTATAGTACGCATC` equals 0.0795

Item: `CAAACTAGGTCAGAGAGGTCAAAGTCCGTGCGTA` | PBM binding z-score: 0.373
